assay: AUC (0 to 24 hrs) in candidiasis patient at 12 mg/kg, iv by HPLC; type: ADME, organism-based; set-up: time < 24 hr, dose 12 mg/kg, route intravenous; settings: human, plasma
Starred links: 1 amine or outer side, 2 acyl side, 3 side chain; linkers in the order of their positions; H or OH if unused. Positions of bridges follow the written chain, without caps; N, C: chain ends. Non-standard residues stand in square brackets, D forms with d. Residues, ends and D or L forms follow the SMILES beside them. *: point of attachment. hTyr(3S-OH,4S-OH,3'-OSO3H) = N[C@H](C(=O)O)[C@H](O)[C@@H](O)c1ccc(O)c(OS(=O)(=O)O)c1; Orn(4R-OH,5R-OH) = O=C([C@H](C[C@@H](O)[C@@H](O)N[*:3])N[*:1])[*:2]; Pro(3S-OH,4S-Me) = C[C@H]1CN[C@H](C(=O)O)[C@H]1O; X1 = CCCCCOc1ccc(-c2cc(-c3ccc(C(=O)*)cc3)no2)cc1; Gln(3R-OH) = NC(=O)C[C@@H](O)[C@H](N)C(=O)O; Hyp = O=C(O)[C@@H]1C[C@@H](O)CN1
ASSAY METRIC: AUC(0-t) at 24 h

Entry CCCCCOc1ccc(-c2cc(-c3ccc(C(=O)N[C@H]4C[C@@H](O)[C@@H](O)NC(=O)[C@@H]5[C@@H](O)[C@@H](C)CN5C(=O)[C@H]([C@H](O)CC(N)=O)NC(=O)[C@H]([C@H](O)[C@@H](O)c5ccc(O)c(OS(=O)(=O)O)c5)NC(=O)[C@@H]5C[C@@H](O)CN5C(=O)[C@H]([C@@H](C)O)NC4=O)cc3)no2)cc1 [MICAFUNGIN] (X1-[Orn(4R-OH,5R-OH)]T[Hyp][hTyr(3S-OH,4S-OH,3'-OSO3H)][Gln(3R-OH)][Pro(3S-OH,4S-Me)]; lactam 1-C) : reported AUC(0-t) at 24 h = ? < 166 µg·h/mL

---

experiment: AUC (0 to 24 hrs) in candidiasis patient at 8 mg/kg, iv by HPLC; assay type: ADME, organism-based; design: time < 24 hr, dose 8 mg/kg, route intravenous; conditions: human, plasma
Starred links: 1 amine or outer side, 2 acyl side, 3 side chain; linkers in the order of their positions; H or OH if unused. Positions of bridges follow the written chain, without caps; N, C: chain ends. Non-standard residues stand in square brackets, D forms with d. Residues, ends and D or L forms follow the SMILES beside them. *: point of attachment. hTyr(3S-OH,4S-OH,3'-OSO3H) = N[C@H](C(=O)O)[C@H](O)[C@@H](O)c1ccc(O)c(OS(=O)(=O)O)c1; Orn(4R-OH,5R-OH) = O=C([C@H](C[C@@H](O)[C@@H](O)N[*:3])N[*:1])[*:2]; Pro(3S-OH,4S-Me) = C[C@H]1CN[C@H](C(=O)O)[C@H]1O; X1 = CCCCCOc1ccc(-c2cc(-c3ccc(C(=O)*)cc3)no2)cc1; Gln(3R-OH) = NC(=O)C[C@@H](O)[C@H](N)C(=O)O; Hyp = O=C(O)[C@@H]1C[C@@H](O)CN1
ASSAY METRIC: AUC(0-t) at 24 h

Entry CCCCCOc1ccc(-c2cc(-c3ccc(C(=O)N[C@H]4C[C@@H](O)[C@@H](O)NC(=O)[C@@H]5[C@@H](O)[C@@H](C)CN5C(=O)[C@H]([C@H](O)CC(N)=O)NC(=O)[C@H]([C@H](O)[C@@H](O)c5ccc(O)c(OS(=O)(=O)O)c5)NC(=O)[C@@H]5C[C@@H](O)CN5C(=O)[C@H]([C@@H](C)O)NC4=O)cc3)no2)cc1 [MICAFUNGIN] (X1-[Orn(4R-OH,5R-OH)]T[Hyp][hTyr(3S-OH,4S-OH,3'-OSO3H)][Gln(3R-OH)][Pro(3S-OH,4S-Me)]; lactam 1-C) : reported AUC(0-t) at 24 h = ? < 166 µg·h/mL
